STUDY_SYSTEM: EGFR tyrosine kinase (Homo sapiens, UniProt P00533)
Construct: Recombinant intracellular fragments of EGFR, erbB2 and erbB4; made in house; host or cells: baculovirus/Sf21 insect cells (cleared lysate used)
Sequence (P00533 669-1210 limits assumed): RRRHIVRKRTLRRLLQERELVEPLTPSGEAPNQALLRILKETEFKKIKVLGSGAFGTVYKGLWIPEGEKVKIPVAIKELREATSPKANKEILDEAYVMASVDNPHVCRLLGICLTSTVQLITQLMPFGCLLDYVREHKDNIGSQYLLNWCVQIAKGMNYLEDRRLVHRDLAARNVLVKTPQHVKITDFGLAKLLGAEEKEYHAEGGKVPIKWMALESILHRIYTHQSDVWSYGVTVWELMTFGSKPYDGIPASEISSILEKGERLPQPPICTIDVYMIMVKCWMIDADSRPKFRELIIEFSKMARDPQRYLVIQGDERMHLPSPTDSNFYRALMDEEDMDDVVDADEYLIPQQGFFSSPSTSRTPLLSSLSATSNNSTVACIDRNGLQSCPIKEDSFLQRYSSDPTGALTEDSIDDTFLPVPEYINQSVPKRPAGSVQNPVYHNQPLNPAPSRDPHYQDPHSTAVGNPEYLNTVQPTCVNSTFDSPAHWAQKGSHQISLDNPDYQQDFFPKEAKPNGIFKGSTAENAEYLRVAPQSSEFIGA
ASSAY_COMMENT: Protein tyrosine kinase phosphorylation assay, Test (a)
Assay type: biochemical
ASSAY_SETUP: recombinant intracellular fragment of EGFR, ATP at Km concentration; read-out: IC50 (nM) Test (a) (Inhibition of EGFR tyrosine kinase protein phosphorylation)
EXPERIMENTAL_READOUT: IC50 (nM)

[
  {
    "COMPOUND": "COCCN1CCN(Cc2cc3c(Nc4cccc(Cl)c4F)ncnc3cc2OC)C(C(N)=O)C1 (stereo not drawn)",
    "UNIT_DESCRIPTOR": "nM",
    "MEASURED_RESULT": 67
  }
]

[A] COc1cc2ncnc(Nc3cccc(Cl)c3F)c2cc1CN1CSC[C@H]1C(N)=O
[B] COc1cc2ncnc(Nc3ccc(F)c(Cl)c3)c2cc1CN1CCC[C@@H]1C(=O)NCC#N
Would you let me know which has the greater IC50 value, A or B ? Reply briefly: the label of your chosen item. B
